Target of assay: T1, murine ramp 1/C1ins- receptor (murine, UniProt Q60755)
T1 sequence 1: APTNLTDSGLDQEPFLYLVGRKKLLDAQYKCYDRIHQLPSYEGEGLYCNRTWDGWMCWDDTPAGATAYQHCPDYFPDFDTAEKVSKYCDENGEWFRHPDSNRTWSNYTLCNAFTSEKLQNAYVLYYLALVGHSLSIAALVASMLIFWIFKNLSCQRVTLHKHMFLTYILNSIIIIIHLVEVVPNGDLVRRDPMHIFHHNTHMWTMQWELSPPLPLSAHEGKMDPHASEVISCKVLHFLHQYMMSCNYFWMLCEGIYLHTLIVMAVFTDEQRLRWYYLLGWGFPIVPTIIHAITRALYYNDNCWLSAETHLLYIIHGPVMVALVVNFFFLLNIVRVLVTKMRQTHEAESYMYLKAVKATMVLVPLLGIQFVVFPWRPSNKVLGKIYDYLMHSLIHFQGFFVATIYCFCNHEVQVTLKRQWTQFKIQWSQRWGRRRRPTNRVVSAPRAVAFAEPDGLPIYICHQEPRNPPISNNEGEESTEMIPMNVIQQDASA
T1 sequence 2: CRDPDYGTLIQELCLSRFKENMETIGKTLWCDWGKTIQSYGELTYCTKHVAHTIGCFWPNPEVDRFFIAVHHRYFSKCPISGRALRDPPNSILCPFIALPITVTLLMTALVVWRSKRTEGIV
Assay summary: displacement of 20 nM [^3H]amylin, L6 myoblasts co-transfected with murine ramp 1 and C1ins-
pIC50: −log10 of the molar value.
Recorded metric: pIC50

VTHRLAGLLSRSGGVVKDNFVPTNVGSEAF [^8,37rat CGRP-1]	7.21
